Molecular target: T1, Human CD3eg linker (human)
T1 construct: Single chain: epsilon and gamma subunits of human CD3 joined by a 29-mer linker, Flag-tag at the C-terminus; also called recombinant human CD3
T1 chain: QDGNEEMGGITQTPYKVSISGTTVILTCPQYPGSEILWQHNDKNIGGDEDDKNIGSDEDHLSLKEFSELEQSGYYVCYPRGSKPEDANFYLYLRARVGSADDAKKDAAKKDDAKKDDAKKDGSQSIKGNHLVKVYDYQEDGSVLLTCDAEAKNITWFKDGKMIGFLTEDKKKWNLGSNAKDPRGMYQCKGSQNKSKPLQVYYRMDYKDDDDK
Assay: Biacore SPR, vs template H183/L072
READOUT_KIND: fold change of affinity (fold)
Form entry: value (fold) — number only.

Name the reported fold change of affinity value associated with the binder H183/L072 VH Q50E (antibody, name in Kabat numbering, V domains shown) VH: QVQLVESGGGLVQPGRSLRLSCAASGFTFSNAWMHWVRQAPGKGLEWVAEIKDKGNAYAAYYAPSVKGRFTISRDDSKNSIYLQMNSLKTEDTAVYYCHYVHYASASTVLPAFGVDAWGQGTTVTVSS VL: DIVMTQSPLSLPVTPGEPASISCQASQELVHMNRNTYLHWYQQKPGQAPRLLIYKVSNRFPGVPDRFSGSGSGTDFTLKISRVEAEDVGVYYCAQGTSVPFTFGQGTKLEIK 0

Another binder to check: H183/L072 VH F29G (antibody, name in Kabat numbering, V domains shown) VH: QVQLVESGGGLVQPGRSLRLSCAASGFTGSNAWMHWVRQAPGKGLEWVAQIKDKGNAYAAYYAPSVKGRFTISRDDSKNSIYLQMNSLKTEDTAVYYCHYVHYASASTVLPAFGVDAWGQGTTVTVSS VL: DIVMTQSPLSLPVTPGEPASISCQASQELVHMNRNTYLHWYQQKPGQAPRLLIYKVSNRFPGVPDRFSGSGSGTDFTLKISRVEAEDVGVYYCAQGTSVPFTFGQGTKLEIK 0

Next:
Entry under review: H183/L072 VH A57R (antibody, name in Kabat numbering, V domains shown) VH: QVQLVESGGGLVQPGRSLRLSCAASGFTFSNAWMHWVRQAPGKGLEWVAQIKDKGNAYARYYAPSVKGRFTISRDDSKNSIYLQMNSLKTEDTAVYYCHYVHYASASTVLPAFGVDAWGQGTTVTVSS VL: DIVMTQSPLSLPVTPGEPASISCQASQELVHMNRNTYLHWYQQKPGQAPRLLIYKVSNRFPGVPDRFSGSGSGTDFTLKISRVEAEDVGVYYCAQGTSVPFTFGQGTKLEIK . Reported fold change of affinity? 1.3
